test: Hemolytic activity in mouse RBC at 31.3 ug/ml after 1 hr relative to control; type: ADME, cell-based, Erythrocyte; details: mouse red blood cells (erythrocytes), at 31.3 µg/mL, read-out: Activity
Parameter: hemolysis at 1 h, 31.3 ug/ml

>>> print(df.to_string())
                                   compound                     parameter  value_measured
0  CCCCCCCCCCNCC(O)(Cn1cncn1)c1ccc(F)cc1F (stereo not given)  hemolysis at 1 h, 31.3 ug/ml             92%
1  CCCCCCCCCCCCCCNCC(O)(Cn1cncn1)c1ccc(F)cc1F (stereo not given)  hemolysis at 1 h, 31.3 ug/ml           < 50%
2  CCCCCCCCNCC(O)(Cn1cncn1)c1ccc(F)cc1F (stereo not given)  hemolysis at 1 h, 31.3 ug/ml              9%
3  CCCCCCCCCCCCNCC(O)(Cn1cncn1)c1ccc(F)cc1F (stereo not given)  hemolysis at 1 h, 31.3 ug/ml            100%

We next turn to a different compound, shown below.
Ask | Please give the measured hemolysis at 1 h, 31.3 ug/ml for this compound: CCCCCCCCCCCCCCCCNCC(O)(Cn1cncn1)c1ccc(F)cc1F (stereo not given)
Reply | 4%

====

assay: Hemolytic activity in mouse RBC at 1.95 ug/ml after 1 hr relative to control; format: ADME, cell-based, Erythrocyte; settings: mouse red blood cells (erythrocytes), at 1.95 µg/mL, read-out: Activity
# key: entry, value: hemolysis at 1 h, 1.95 ug/ml

In [3]: df
Out[3]:
                                   molecule  value_measured
0  CCCCCCCCNCC(O)(Cn1cncn1)c1ccc(F)cc1F (stereo unspecified)              0%
1  CCCCCCCCCCCCNCC(O)(Cn1cncn1)c1ccc(F)cc1F (stereo unspecified)              2%
2  CCCCCCCCCCCCCCNCC(O)(Cn1cncn1)c1ccc(F)cc1F (stereo unspecified)              3%

Ask | Please give the measured hemolysis at 1 h, 1.95 ug/ml for this molecule: CCCCCCCCCCCCCCCCNCC(O)(Cn1cncn1)c1ccc(F)cc1F (stereo unspecified)
Reply | 6%

Ask | Please give the measured hemolysis at 1 h, 1.95 ug/ml for this molecule: `C[C@@H](c1ncncc1F)[C@](O)(Cn1cncn1)c1ccc(F)cc1F`
Reply | 6%

Ask | Please give the measured hemolysis at 1 h, 1.95 ug/ml for this molecule: CCCCCCCCCCNCC(O)(Cn1cncn1)c1ccc(F)cc1F (stereo unspecified)
Reply | 2%

====

experiment: Hemolytic activity in mouse RBC at 0.48 ug/ml after 1 hr relative to control; type: ADME, cell-based, Erythrocyte; settings: mouse red blood cells (erythrocytes), read-out: Activity
Parameter: hemolysis at 1 h, 0.48 ug/ml

Ask | Please give the measured hemolysis at 1 h, 0.48 ug/ml for this compound: CCCCCCCCCCCCNCC(O)(Cn1cncn1)c1ccc(F)cc1F (stereo unspecified)
Reply | 2%

Ask | Please give the measured hemolysis at 1 h, 0.48 ug/ml for this compound: CCCCCCCCCCCCCCNCC(O)(Cn1cncn1)c1ccc(F)cc1F (stereo unspecified)
Reply | 2%

Ask | Please give the measured hemolysis at 1 h, 0.48 ug/ml for this compound: `C[C@@H](c1ncncc1F)[C@](O)(Cn1cncn1)c1ccc(F)cc1F`
Reply | 9%

Ask | Please give the measured hemolysis at 1 h, 0.48 ug/ml for this compound: CCCCCCCCCCCCCCCCNCC(O)(Cn1cncn1)c1ccc(F)cc1F (stereo unspecified)
Reply | 4%

Ask | Please give the measured hemolysis at 1 h, 0.48 ug/ml for this compound: CCCCCCCCCCNCC(O)(Cn1cncn1)c1ccc(F)cc1F (stereo unspecified)
Reply | 0%

Ask | Please give the measured hemolysis at 1 h, 0.48 ug/ml for this compound: CCCCCCCCNCC(O)(Cn1cncn1)c1ccc(F)cc1F (stereo unspecified)
Reply | 2%

Data origin, for the record: ChEMBL document CHEMBL4118101
